test_system: JAK3 (Homo sapiens, UniProt P52333)
Construct: made in house; host or cells: SF9 insect cells (baculovirus)
Sequence (P52333 783-1124): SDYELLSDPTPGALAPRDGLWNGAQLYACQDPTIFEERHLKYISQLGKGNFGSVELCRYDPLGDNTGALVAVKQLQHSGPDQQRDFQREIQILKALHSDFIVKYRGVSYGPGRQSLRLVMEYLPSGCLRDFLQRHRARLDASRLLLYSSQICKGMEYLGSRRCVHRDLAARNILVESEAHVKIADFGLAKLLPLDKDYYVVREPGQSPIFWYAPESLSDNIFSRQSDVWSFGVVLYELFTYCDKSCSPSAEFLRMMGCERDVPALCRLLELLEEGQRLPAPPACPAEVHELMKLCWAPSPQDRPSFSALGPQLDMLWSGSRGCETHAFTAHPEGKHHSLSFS
experiment: JAK3 inhibition (Table 4)
Format: biochemical
condition_notes: read-out: JAK3 Ki
pKi: −log10 of the molar value.
Where pKi equals or exceeds 7, the correct label is Met; where it does not, the label is Not met.

INSERT INTO measurements (molecule, assigned_label) VALUES
  ('CN(C)C(=O)CNC(=O)Cc1nc2cnc3[nH]ccc3c2n1C1CCCOC1 (racemic) [Example 970]', 'Not met'),
  ('C[C@@H](O)c1nc2cnc3[nH]ccc3c2n1C1CCC(NCC(F)(F)F)CC1 (stereo partly shown) [Example 1009]', 'Met'),
  ('O=C(c1nc2cnc3[nH]ccc3c2n1C1CCN(Cc2ccccc2)CC1)N1CCOCC1 [Example 237]', 'Met'),
  ('FC(F)(F)c1nc2cnc3[nH]ccc3c2n1C1CCN(Cc2ccccc2)CC1 [Example 167]', 'Met');

Proceed to the following item.
[in] # bool: pKi of N#CCCN1CCC(n2c(CCC3CCCO3)nc3cnc4[nH]ccc4c32)CC1 (racemic) [Example 517] >= 7
[out] Met

This collection of values is drawn from patent US8461328B2.
